Kindly supply the reported abundance fitness values for the records listed here.
B1: Histone H1t, residues 44 to 112; numbered along this chain, P22492 (parent)
chain: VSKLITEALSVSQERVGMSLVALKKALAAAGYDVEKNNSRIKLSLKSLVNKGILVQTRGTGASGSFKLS

Variants of: B1
Assay: abundance fitness (aPCA) (normalised: wild type 0, dead -1); higher = more abundant; growth selection in yeast, the domain comes from the species named
Settings: Homo sapiens
Give bare numbers.

{"columns": ["VARIANT DESCRIPTION", "RECORDED NUMBER"],
 "data": [
  ["R58W", -0.151],
  ["G31N", -0.357],
  ["S47M", -0.05]
]}

Can you give me abundance fitness for all of these, one by one?
1. N50D
2. L48T
3. R58S

Output:
1. -0.105
2. -0.592
3. 0.103

Can you give me abundance fitness for all of these, one by one?
1. S39C
2. A29D
3. A28S
4. A22W
5. L43D
6. S69C
7. S69T
8. T57E

Output:
1: -0.675; 2: -0.085; 3: -0.114; 4: -0.101; 5: 0.036; 6: -0.246; 7: -0.029; 8: 0.117

Can you give me abundance fitness for all of these, one by one?
1. I53S
2. K51M
3. G52S
4. S69R
5. Q56R
6. A26C

Output:
1. -0.081
2. -0.258
3. -0.129
4. -0.151
5. -0.031
6. -0.14

Can you give me abundance fitness for all of these, one by one?
1. L45G
2. L45E

Output:
[-0.574, -0.978]
